system: Fibroblast; test: Multiplex assay against human fibroblast; format: toxicity, cell-based; settings: 48 h, 10 µM, compound concentration 10 uM, replicate 1
Readout Kind: Population Mitotic Cells (%)

>>> test_value("O=c1cc(N2CCOCC2)oc2c(-c3cccc4c3sc3ccccc34)cccc12")
31
>>> test_value("CC(C)Oc1ccccc1C(=O)Nc1ccccc1C(=O)Nc1cccc(S(=O)(=O)C(F)(F)F)c1")
21
>>> test_value("CC(C)(C)NC[C@H](O)COc1nsnc1N1CCOCC1")
52
>>> test_value("O=C(c1cc2c(cc1F)OC(c1ccc(F)cc1)(c1ccc(Cl)cc1Cl)O2)N1CCOCC1 (stereo unspecified)")
20
>>> test_value("Cl.O=C(O)c1cc(-c2ccc(C3CCNCC3)cc2)c2ccc(-c3ccc(C(F)(F)F)cc3)cc2c1")
23
>>> test_value("COc1cc2ncn(-c3cc(OCc4ccccc4C(F)(F)F)c(C(N)=O)s3)c2cc1OC [GW843682X]")
38
